# Target system: T1, hIL-4Rα on cells (human, UniProt P24394 26-825)
# T1 sequence: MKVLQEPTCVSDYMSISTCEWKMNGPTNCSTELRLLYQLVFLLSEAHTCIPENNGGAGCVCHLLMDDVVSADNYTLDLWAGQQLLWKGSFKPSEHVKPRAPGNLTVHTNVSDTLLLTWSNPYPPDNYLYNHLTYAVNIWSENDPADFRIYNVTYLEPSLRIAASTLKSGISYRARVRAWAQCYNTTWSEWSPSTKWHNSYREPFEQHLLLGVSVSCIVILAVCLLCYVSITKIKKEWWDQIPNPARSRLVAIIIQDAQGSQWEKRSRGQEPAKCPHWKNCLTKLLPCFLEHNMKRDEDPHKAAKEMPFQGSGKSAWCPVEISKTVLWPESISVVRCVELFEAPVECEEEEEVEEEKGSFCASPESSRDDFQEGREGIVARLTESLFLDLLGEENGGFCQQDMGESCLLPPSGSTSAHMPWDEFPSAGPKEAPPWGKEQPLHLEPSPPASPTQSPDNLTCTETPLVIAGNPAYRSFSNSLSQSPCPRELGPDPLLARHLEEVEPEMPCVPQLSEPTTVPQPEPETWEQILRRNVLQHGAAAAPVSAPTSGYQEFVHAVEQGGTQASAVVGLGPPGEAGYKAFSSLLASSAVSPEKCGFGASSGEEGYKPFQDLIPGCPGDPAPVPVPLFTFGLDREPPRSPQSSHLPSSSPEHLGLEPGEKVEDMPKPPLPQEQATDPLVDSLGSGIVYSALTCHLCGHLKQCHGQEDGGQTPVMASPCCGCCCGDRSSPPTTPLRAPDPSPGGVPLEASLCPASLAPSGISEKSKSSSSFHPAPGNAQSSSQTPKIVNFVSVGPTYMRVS
# Experimental details: cell-based or functional assay
Listed next: entries and their corresponding Relative Inhibition of IL-4 induced TARC IC50.
Observation type: Relative Inhibition of IL-4 induced TARC IC50

# Binder, Val
rows = [
    ("Construct 34 (mAb459) (antibody, IgG4, V domains shown, VH/VL only) VH: EVQLVESGGGLEQPGGSLRLSCAGSGFTFRDFAMTWVRQAPGKGLEWVSSISGSGDNIYYADSVKGRFTISRDNSKNTLYLQMNSLRAEDTAVYYCAKDRLSKTIRPRYYGLDVWGQGTTVTVSS VL: DIVMTQSPLSLPVTPGEPASISCRSSQGLLYSIGYNYVDWYLQKSGQSPQLLIYLGNKRASGVPDRFSGSGSGTDFTLKISRVEAEDVGFYYCMQALDTPYTFGQGTKLEIK", "4.32 relative to dupilumab"),
    ("Construct 15 (mAb423) (antibody, IgG4, V domains shown, VH/VL only) VH: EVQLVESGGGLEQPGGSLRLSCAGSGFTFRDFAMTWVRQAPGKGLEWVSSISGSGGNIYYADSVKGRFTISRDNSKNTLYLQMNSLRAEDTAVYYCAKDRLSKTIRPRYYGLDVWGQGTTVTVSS VL: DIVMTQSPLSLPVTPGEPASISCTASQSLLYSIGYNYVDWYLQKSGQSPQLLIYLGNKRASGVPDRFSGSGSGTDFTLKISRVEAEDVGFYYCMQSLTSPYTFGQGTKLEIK", "0.453 relative to dupilumab"),
    ("Construct 13 (mAb422) (antibody, IgG4, V domains shown, VH/VL only) VH: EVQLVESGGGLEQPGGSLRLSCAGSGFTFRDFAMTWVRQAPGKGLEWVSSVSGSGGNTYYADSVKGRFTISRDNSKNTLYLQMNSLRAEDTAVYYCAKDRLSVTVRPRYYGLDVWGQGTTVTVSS VL: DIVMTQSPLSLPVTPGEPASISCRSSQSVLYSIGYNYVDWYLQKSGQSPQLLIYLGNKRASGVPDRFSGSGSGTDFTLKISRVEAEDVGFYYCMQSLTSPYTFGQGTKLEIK", "0.507 relative to dupilumab"),
    ("Construct 29 (mAb437) (antibody, IgG4, V domains shown, VH/VL only) VH: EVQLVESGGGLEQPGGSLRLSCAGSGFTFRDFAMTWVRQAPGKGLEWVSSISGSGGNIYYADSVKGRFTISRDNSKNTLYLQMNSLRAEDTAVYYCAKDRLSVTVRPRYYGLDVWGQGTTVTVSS VL: DIVMTQSPLSLPVTPGEPASISCTSSQSLLYSIGYNYVDWYLQKSGQSPQLLIYLGNKRASGVPDRFSGSGSGTDFTLKISRVEAEDVGFYYCMQSLTSPYTFGQGTKLEIK", "0.693 relative to dupilumab"),
    ("Construct 21 (mAb429) (antibody, IgG4, V domains shown, VH/VL only) VH: EVQLVESGGGLEQPGGSLRLSCAGSGFTFRTYAMTWVRQAPGKGLEWVSSISGSGGNIYYADSVKGRFTISRDNSKNTLYLQMNSLRAEDTAVYYCAKDRVSIYVRPRYYGLDVWGQGTTVTVSS VL: DIVMTQSPLSLPVTPGEPASISCTASQSLLYSIGYNYVDWYLQKSGQSPQLLIYLGSKRASGVPDRFSGSGSGTDFTLKISRVEAEDVGFYYCMQSLTSPYTFGQGTKLEIK", "0.342 relative to dupilumab"),
    ("Construct 28 (mAb436) (antibody, IgG4, V domains shown, VH/VL only) VH: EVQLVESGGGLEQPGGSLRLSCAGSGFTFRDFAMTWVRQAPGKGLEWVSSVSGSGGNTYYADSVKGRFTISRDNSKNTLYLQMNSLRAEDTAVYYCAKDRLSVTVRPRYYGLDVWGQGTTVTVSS VL: DIVMTQSPLSLPVTPGEPASISCTSSQSLLYSIGYNYVDWYLQKSGQSPQLLIYLGNKRASGVPDRFSGSGSGTDFTLKISRVEAEDVGFYYCMQSLQTPYTFGQGTKLEIK", "0.58 relative to dupilumab"),
]
